biological target: human recombinant melanocortin-4 receptor (hMC4-R) (human) (UniProt P32245); assay: competitive binding against [I125]-NDP-α-MSH, HEK-293 hMC4-R membranes
Sequence (P32245 whole entry): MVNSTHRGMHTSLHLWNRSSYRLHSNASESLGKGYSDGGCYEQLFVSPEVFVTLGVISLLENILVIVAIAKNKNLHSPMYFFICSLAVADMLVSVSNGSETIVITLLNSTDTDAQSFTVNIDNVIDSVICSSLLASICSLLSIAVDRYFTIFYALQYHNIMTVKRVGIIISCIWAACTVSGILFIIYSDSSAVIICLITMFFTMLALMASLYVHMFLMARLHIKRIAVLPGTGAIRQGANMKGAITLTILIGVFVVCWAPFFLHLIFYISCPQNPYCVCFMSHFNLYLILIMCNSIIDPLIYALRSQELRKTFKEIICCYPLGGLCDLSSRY
Bridge positions count the residues as written; N and C are the ends. Square brackets hold non-standard residues; d marks the D form. Orn = NCCC[C@H](N)C(=O)O; Dab = NCC[C@H](N)C(=O)O
RECORDED ENDPOINT: pKi
One number for each entry, as −log10 of the molar value.

Field pKi (entry Ac-RE[Dab][dF]RW[Orn]-OH (lactam 2-7; also: acetate and TFA salts) [cyclic peptide of Example 8.4, Ac-Arg-cyclo(Glu-Dab-D-Phe-Arg-Trp-Orn)-OH] ) reads 8.10

Would you kindly look at the next entry?
Field pKi (entry Ac-RE[Dab][dF]RW[Orn]-NH2 (lactam 2-7; also: TFA salt) [cyclic peptide of Example 8.3, Ac-Arg-cyclo(Glu-Dab-D-Phe-Arg-Trp-Orn)-NH2] ) reads 9.19

Data origin, for the record: patent US20110065652A1
